# Species: Homo sapiens
# assay_name: Inhibition of aggrecanase at 1 uM
readout_type: inhibition (%)
Numbers only, in %.

# example entries with known answers
Cc1cc(COc2ccc(C(=O)NCC3(N4CCN(Cc5ccccc5)CC4)C(=O)NC(=O)NC3=O)cc2)c2ccccc2n1 ... 22
Cc1cc(COc2ccc(C(=O)NCC3(C)C(=O)NC(=O)NC3=O)cc2)c2ccccc2n1 ... 0
Cc1cc(COc2ccc(C(=O)NCC3(C4CCNCC4)C(=O)NC(=O)NC3=O)cc2)c2ccccc2n1 ... 1
Cc1cc(COc2ccc(C(=O)NC3CN(C(=O)C(C)(C)C)CC34C(=O)NC(=O)NC4=O)cc2)c2ccccc2n1 (stereo not drawn) ... 53
Cc1cc(COc2ccc(C(=O)NC3CN(C(=O)OC(C)(C)C)CC34C(=O)NC(=O)NC4=O)cc2)c2ccccc2n1 (stereo not drawn) ... 44
CC(=O)N1CC(NC(=O)c2ccc(OCc3cc(C)nc4ccccc34)cc2)C2(C1)C(=O)NC(=O)NC2=O (stereo not drawn) ... 44
Cc1cc(COc2ccc(C(=O)NC3CN(C(=O)c4cccnc4)CC34C(=O)NC(=O)NC4=O)cc2)c2ccccc2n1 (stereo not drawn) ... 17

Okay, next one:
In: // query inhibition value for entry Cc1cc(COc2ccc(C(=O)NCC3(Cc4ccccc4)C(=O)NC(=O)NC3=O)cc2)c2ccccc2n1
Out: 34

---

# target: 72 kDa type IV collagenase (Homo sapiens)
# Sequence (P08253 whole entry): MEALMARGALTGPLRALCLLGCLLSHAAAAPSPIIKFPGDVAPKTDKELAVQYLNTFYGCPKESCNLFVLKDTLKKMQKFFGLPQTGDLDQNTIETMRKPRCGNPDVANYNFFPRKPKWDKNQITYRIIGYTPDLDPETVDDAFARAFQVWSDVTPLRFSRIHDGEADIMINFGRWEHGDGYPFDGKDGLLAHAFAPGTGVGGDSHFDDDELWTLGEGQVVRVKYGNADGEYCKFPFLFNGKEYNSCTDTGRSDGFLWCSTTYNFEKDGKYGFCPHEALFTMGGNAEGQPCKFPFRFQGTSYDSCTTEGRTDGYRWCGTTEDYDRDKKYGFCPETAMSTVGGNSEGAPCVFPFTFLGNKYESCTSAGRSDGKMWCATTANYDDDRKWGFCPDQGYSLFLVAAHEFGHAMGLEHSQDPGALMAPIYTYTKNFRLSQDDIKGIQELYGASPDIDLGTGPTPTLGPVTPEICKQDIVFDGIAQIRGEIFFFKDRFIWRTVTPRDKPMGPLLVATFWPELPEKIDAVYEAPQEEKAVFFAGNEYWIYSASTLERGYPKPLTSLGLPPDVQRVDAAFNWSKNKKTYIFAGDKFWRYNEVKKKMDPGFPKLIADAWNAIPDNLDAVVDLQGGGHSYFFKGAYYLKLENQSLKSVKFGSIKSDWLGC
# assay_name: Inhibition of MMP2
readout_type: Ki

Consider the worked cases shown below.
Cc1cc(COc2ccc(C(=O)NC3CCCCC34C(=O)NC(=O)NC4=O)cc2)c2ccccc2n1 (centres undefined) ... 0.11 µM
Cc1cc(COc2ccc(C(=O)NCC3(C4CCN(C)CC4)C(=O)NC(=O)NC3=O)cc2)c2ccccc2n1 ... > 3.33 µM
Cc1cc(COc2ccc(C(=O)NCC3(C4CCNCC4)C(=O)NC(=O)NC3=O)cc2)c2ccccc2n1 ... > 3.33 µM

In: Return reported Ki; argument: Cc1cc(COc2ccc(C(=O)NCC3(NC(=O)OC(C)(C)C)C(=O)NC(=O)NC3=O)cc2)c2ccccc2n1
Out: > 3.33 µM

---

# target: Matrix metalloproteinase-9 (Homo sapiens, UniProt P14780)
# Sequence (P14780 whole entry): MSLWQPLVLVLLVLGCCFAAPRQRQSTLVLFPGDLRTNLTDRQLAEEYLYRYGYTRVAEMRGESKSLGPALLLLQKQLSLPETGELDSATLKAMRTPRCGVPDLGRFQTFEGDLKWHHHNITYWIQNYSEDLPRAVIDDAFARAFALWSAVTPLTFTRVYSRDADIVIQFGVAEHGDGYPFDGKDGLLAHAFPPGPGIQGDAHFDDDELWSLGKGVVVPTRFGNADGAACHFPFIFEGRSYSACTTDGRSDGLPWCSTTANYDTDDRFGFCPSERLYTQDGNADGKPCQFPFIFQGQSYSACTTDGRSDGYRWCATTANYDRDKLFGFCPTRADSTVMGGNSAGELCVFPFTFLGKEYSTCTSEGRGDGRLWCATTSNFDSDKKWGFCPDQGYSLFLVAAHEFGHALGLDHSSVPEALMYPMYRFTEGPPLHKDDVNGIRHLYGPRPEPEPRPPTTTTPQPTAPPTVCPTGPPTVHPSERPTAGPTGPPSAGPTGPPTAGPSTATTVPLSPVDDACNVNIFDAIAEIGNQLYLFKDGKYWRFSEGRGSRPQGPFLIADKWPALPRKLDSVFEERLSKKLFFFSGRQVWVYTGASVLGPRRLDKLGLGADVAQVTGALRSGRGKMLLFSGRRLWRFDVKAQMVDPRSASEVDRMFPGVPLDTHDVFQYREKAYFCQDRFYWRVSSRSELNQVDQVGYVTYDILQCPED
pKi: −log10 of the molar value.
readout_type: pKi

In: Query (molecule): Cc1cc(COc2ccc(C(=O)NCC3(C)C(=O)NC(=O)NC3=O)cc2)c2ccccc2n1 ; field requested: pKi
Out: < 5.67

---

Provide the reported pIC50 of each item.
# target: Disintegrin and metalloproteinase domain-containing protein 17 (Sus scrofa, UniProt O77636)
# Sequence (O77636 whole entry, the tested form may be a part): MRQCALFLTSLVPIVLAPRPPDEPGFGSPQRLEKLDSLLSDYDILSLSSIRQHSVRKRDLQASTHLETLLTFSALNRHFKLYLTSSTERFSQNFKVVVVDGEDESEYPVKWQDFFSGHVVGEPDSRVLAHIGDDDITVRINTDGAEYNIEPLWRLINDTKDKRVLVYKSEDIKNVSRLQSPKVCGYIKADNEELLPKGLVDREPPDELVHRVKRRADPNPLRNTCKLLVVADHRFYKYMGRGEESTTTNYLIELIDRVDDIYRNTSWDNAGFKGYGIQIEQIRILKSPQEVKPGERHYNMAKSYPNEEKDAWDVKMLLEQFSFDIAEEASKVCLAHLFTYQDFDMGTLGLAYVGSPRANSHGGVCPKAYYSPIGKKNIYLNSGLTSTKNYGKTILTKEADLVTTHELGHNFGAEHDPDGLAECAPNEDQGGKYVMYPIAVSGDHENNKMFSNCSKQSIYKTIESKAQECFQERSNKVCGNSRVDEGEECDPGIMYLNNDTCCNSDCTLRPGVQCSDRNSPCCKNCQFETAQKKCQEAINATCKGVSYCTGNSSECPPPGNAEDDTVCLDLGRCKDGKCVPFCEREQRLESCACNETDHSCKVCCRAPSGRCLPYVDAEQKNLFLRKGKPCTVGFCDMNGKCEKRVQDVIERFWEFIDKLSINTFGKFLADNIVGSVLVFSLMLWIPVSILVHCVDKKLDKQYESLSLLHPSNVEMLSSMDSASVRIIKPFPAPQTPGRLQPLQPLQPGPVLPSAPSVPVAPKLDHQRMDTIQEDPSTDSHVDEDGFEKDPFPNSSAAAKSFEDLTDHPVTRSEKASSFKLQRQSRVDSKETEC
One number for each entry, as −log10 of the molar value.

Below, 8 compounds whose answers are already recorded.
Cc1cc(COc2ccc(C(=O)NC3COCC34C(=O)NC(=O)NC4=O)cc2)c2ccccc2n1 (centres undefined) ... 7.36
Cc1cc(COc2ccc(NC(=O)CC3(C)C(=O)NC(=O)NC3=O)cc2)c2ccccc2n1 ... 4.92
Cc1cc(COc2ccc(C(=O)NCC3(C4CCNCC4)C(=O)NC(=O)NC3=O)cc2)c2ccccc2n1 ... 7.26
Cc1cc(COc2ccc(C(=O)NCC3(C)C(=O)NC(=O)NC3=O)cc2)c2ccccc2n1 ... 7.59
Cc1cc(COc2ccc(C(=O)NC3CN(S(C)(=O)=O)CC34C(=O)NC(=O)NC4=O)cc2)c2ccccc2n1 (centres undefined) ... 7.44
Cc1cc(COc2ccc(C(=O)NC3CCCC34C(=O)NC(=O)NC4=O)cc2)c2ccccc2n1 (centres undefined) ... 7.62
CCC1(CNC(=O)c2ccc(OCc3cc(C)nc4ccccc34)cc2)C(=O)NC(=O)NC1=O ... 7.80
CC(=O)N1CCN(C2(CNC(=O)c3ccc(OCc4cc(C)nc5ccccc45)cc3)C(=O)NC(=O)NC2=O)CC1 ... 8.30

Proceed to the following item.
In: Quick one: pIC50 of Cc1cc(COc2ccc(CC3(C)C(=O)NC(=O)NC3=O)cc2)c2ccccc2n1 ?
Out: 5.66

---

# target: 72 kDa type IV collagenase (Homo sapiens)
pKi: −log10 of the molar value.
For each record, write down the corresponding pKi.

CCC1(CNC(=O)c2ccc(OCc3cc(C)nc4ccccc34)cc2)C(=O)NC(=O)NC1=O ... 6.70

Dear colleague, could you send me pKi for each of the items below? Thanks.
1. Cc1cc(COc2ccc(C(=O)NCC3(C4CCN(C(C)C)CC4)C(=O)NC(=O)NC3=O)cc2)c2ccccc2n1
2. CC(=O)N1CC(NC(=O)c2ccc(OCc3cc(C)nc4ccccc34)cc2)C2(C1)C(=O)NC(=O)NC2=O (stereo not drawn)

Out:
< 5.48
< 5.48

---

# Species: Homo sapiens
# assay_name: Inhibition of aggrecanase at 1 uM
readout_type: inhibition
The reply should consist of the numeric value with the unit placed after it.

Below, each entry is followed by its recorded inhibition result.
Cc1cc(COc2ccc(C(=O)NCC3(C4CCN(C(=O)OC(C)(C)C)CC4)C(=O)NC(=O)NC3=O)cc2)c2ccccc2n1 ... 0%
Cc1cc(COc2ccc(C(=O)NCC3(C(C)C)C(=O)NC(=O)NC3=O)cc2)c2ccccc2n1 ... 11%
Cc1cc(COc2ccc(C(=O)NC3CN(S(C)(=O)=O)CC34C(=O)NC(=O)NC4=O)cc2)c2ccccc2n1 (centres undefined) ... 26%

# ---- query compound ----
In: What does the data say about its inhibition? Entry: CCC1(CNC(=O)c2ccc(OCc3cc(C)nc4ccccc34)cc2)C(=O)NC(=O)NC1=O
Out: 18%

meta.source: ChEMBL document CHEMBL1138371
